Target: T1, extracellular domain of human KLB expressed with C-terminal HA and hexahistidine tags (human, UniProt Q86Z14 1-996)
T1 construct: also called hKLB-HA-6His; hKLB-HA-6his
T1 sequence: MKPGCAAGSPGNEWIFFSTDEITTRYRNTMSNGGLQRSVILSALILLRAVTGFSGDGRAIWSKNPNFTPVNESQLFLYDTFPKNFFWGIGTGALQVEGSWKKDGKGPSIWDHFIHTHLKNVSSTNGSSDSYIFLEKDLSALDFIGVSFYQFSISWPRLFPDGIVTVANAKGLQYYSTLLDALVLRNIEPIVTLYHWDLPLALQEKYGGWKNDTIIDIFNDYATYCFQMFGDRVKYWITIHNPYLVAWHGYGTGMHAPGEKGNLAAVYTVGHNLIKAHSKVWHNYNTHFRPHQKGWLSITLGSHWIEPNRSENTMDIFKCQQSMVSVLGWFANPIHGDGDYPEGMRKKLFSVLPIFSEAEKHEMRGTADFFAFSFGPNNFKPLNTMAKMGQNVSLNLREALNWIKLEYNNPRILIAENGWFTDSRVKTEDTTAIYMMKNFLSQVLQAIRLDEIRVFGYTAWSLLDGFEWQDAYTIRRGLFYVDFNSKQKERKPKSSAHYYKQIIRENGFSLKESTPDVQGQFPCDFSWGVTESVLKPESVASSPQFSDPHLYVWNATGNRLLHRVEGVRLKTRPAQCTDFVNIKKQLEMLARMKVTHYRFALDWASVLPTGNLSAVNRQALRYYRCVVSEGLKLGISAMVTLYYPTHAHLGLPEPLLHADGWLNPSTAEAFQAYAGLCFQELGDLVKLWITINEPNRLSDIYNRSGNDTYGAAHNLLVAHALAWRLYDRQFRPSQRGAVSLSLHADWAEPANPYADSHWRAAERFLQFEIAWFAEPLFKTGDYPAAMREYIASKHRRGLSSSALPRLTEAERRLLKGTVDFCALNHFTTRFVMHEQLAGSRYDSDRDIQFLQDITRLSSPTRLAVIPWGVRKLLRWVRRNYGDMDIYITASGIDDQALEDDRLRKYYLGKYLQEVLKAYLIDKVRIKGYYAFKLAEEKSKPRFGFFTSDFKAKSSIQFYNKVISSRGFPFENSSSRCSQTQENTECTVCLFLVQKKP
Experiment: SPR, mAb captured, 25 C
property: t1/2 (h)
// units = h; emit number, no label

Problem: In one line, give reported t1/2 of the entry H2aM8093N (antibody, V domains shown, mouse IgG2 Fc (H2aM prefix)) VH: QVQLVQSGAEVKRPGSSVKVSCKASGDTFSTYAISWVRQAPGQGLEWMGGIIPVFGTTNYAQKFQDRVTITTDESTRTAYMELSSLRSEDTAVYYCAGIAGPDYWGQGTLVTVSS VL: DIQMTQSPSSLSASVGDRVTITCRASQGIRNYLAWFQQKPGKAPKSLIYLATSLQSGVPSKFSGSGSGTDFTLTISSLQPEDFATYYCQQYYSYPWTFGQGTKVEIK .
Result: 1.96

Problem: Identify measured t1/2 associated with H2aM8109N (antibody, V domains shown, mouse IgG2 Fc (H2aM prefix)) VH: QVQVVESGGGVVQPGRSLRLSCAASGFTFSSYGLHWVRQAPGKGLEWVAVIWHDGSHKYYADSVKGRFTISRDNSKNTLYLQMNSLRAEDTAVYYCARDGIPVAEDYYFYGMDVWGQGTTVTVSS VL: DIQMTQSPSSLSASVGDRVTITCRASQGIRNDLGWYQQKPGKAPKRLIYAASSLQSGVPSRFSGSGSGTEFTLTISSLQPEDFAIYYCLQHNSLTFGGGTKVEIK
Result: 0.428
